Recorded values, source patent US8202513B2.

Give EC50 for every item shown.
# test-target: human Kv1.3 ion channel (Homo sapiens)
# Construct: Human Jurkat cells (which endogenously express hKv1.3) or Chinese Hamster Ovary (CHO) cells stably transfected with hKv1.3 were used; endogenous in cells
# Sequence (P22001 whole entry): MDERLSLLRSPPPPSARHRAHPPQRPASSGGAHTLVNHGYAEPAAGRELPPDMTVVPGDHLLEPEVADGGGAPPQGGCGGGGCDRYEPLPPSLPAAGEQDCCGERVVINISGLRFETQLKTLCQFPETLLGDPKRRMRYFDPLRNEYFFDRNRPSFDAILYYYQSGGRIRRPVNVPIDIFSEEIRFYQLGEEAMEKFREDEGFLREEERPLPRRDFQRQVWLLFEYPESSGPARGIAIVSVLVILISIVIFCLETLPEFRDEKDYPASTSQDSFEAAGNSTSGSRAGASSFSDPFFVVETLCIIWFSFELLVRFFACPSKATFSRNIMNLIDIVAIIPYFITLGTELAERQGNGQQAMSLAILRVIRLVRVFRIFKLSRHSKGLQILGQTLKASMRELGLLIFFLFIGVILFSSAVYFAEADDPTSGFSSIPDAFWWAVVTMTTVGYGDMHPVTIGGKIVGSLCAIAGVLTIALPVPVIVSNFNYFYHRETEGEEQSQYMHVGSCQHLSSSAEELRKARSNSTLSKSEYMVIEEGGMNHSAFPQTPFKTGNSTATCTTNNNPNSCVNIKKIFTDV
# assay-protocol: Inhibition of Kv1.3 currents, planar patch clamp
# stated-conditions: Human Jurkat cells or CHO cells stably transfected with hKv1.3; averaged dose response data from 3 or more cells

Assay human Kv1.3 ion channel (Homo sapiens), sample COc1c(Cl)c(C)c(C(C)=O)c(OCCN2CCCCC2)c1OCCC(C)c1ccc(F)cc1 (stereo not drawn) , EC50 read: < 50 nM

Record COc1cc(O)c(C(C)=O)c(OCCCCOc2ccccc2)c1 [reference compound] has human Kv1.3 ion channel (Homo sapiens) EC50 equal to 150 to 300 nM

Field EC50 (system: human Kv1.3 ion channel (Homo sapiens)) for entry COc1c(Cl)c(C)c(C(C)=O)c(OCCN2CCC(F)CC2)c1OCCC(C)c1ccc(F)cc1 (stereo not drawn) = 50 to 150 nM

----------
Give EC50 for every item shown.
# test-target: human Kv1.3 ion channel (Homo sapiens)
# Construct: Human Jurkat cells (which endogenously express hKv1.3) or Chinese Hamster Ovary (CHO) cells stably transfected with hKv1.3 were used; endogenous in cells
# assay-protocol: Inhibition of Kv1.3 currents, planar patch clamp
# stated-conditions: Human Jurkat cells or CHO cells stably transfected with hKv1.3; averaged dose response data from 3 or more cells

# EC50 of COc1c(Cl)c(C)c(C(C)=O)c(OCCN2CCC(F)(F)C2)c1OCCCc1ccccc1 [Example 37] = 150 to 300 nM

Reported EC50 ( CCCc1c(NCC)ccc(C(C)=O)c1OCCCc1ccccc1 [reference compound] ) = > 300 nM

response.value for COc1c(Cl)c(C)c(C(C)=O)c(OCc2ccccn2)c1OCCC(C)c1ccc(F)cc1 (centres unmarked) [Example 13] (field: EC50) = 150 to 300 nM

Noted for COc1c(Cl)c(C)c(C(C)=O)c(OCCNC2CCCC2)c1OCCCc1ccccc1 [Example 34c] : its EC50 reads 50 to 150 nM

Just so you know, measured EC50 for COc1cc(C)c(C(C)=O)c(O)c1OCCCc1ccccc1 [Example 33a, reference compound] came out at > 300 nM

EC50 reported for this molecule C=CCc1c(NC(C)=O)ccc(C(C)=O)c1OCCCc1ccccc1 [reference compound] : > 300 nM

For COc1c(Cl)c(C)c(C(C)=O)c(OCCN2CCOCC2)c1OCCCc1ccc(F)cc1 [Example 1f] the molecule record lists EC50 as 50 to 150 nM

Memo: CCCC(=O)c1ccc(NC(C)=O)cc1OCCCc1ccccc1 [reference compound] , reported EC50: > 300 nM

Data point: CC(=O)c1ccc(N)cc1OCCCc1ccccc1 [reference compound] ; EC50 = > 300 nM

The molecule COc1c(Cl)c(C)c(C(C)=O)c(OCCN2CC(=O)C2)c1OCCCc1ccccc1 [Example 39] showed EC50 equal to > 300 nM

Lab note: measured EC50 of COc1ccc(C(C)=O)c(NCCCc2ccccc2)c1 [reference compound] was > 300 nM

Measured EC50, COc1c(Cl)c(C)c(C(C)=O)c(OCCc2ccccn2)c1OCCC(C)c1ccc(F)cc1 (centres unmarked) [Example 7d] : < 50 nM

Measured EC50, COc1c(Cl)c(C)c(C(C)=O)c(OCCN2CC(F)(F)C2)c1OCCCc1ccccc1 [Example 35] : > 300 nM

For record COc1c(Cl)c(C)c(C(C)=O)c(OCCN2CC(F)(F)C2)c1OCCC(C)c1ccc(F)cc1 (centres unmarked) [Example 20] the listed EC50 is 50 to 150 nM

EC50 for COc1c(Cl)c(C)c(C(C)=O)c(OCCN2CCC(O)CC2)c1OCCC(C)c1ccc(F)cc1 (centres unmarked) [Example 14] is 50 to 150 nM

Note to self: EC50 recorded for COc1c(Cl)c(C)c(C(C)=O)c(OCCN2CCSCC2)c1OCCCc1ccccc1 [Example 36] was 50 to 150 nM

For record COc1c(Cl)c(C)c(C(C)=O)c(OCCN2CCC(=O)CC2)c1OCCC(C)c1ccc(F)cc1 (centres unmarked) [Example 15] the listed EC50 is < 50 nM
